Kindly find below IC50 information for ROCK2 (Homo sapiens) taken from the literature.
Give bare numbers, in nM.

Use these answered entries as a reference point.
Cn1cc(-c2ccc3sc(NC(=O)Cc4ccc(Oc5ncccc5C(N)=O)c(F)c4)nc3c2)cn1 | 10
O=C(C1CC(F)(F)C1)N1Cc2ccc(-c3ncc(F)c(Nc4ccc5c(=O)[nH]ccc5c4)n3)cc2C1 | 16

Now consider a different compound.
[in] Requested field: IC50. Item: CC(=O)NC[C@@H](NC(=O)c1ccc(-c2cn[nH]c2)c(C)c1)c1ccccc1
[out] 10.9

----------
Several publications report pIC50 on ROCK2 (Homo sapiens); those values are gathered here.
pIC50: −log10 of the molar value.

Dear colleague, could you please provide pIC50 for the molecules listed below?
1. Cc1c(C(=O)NC2CC3(C2)CC(c2n[nH]c(=O)c4ccccc24)C3)nnn1-c1ccccc1 (stereo not drawn)
2. O=C1c2ccccc2CN1C1CC2(CC(c3n[nH]c(=O)c4ccccc34)C2)C1 (stereo not drawn)
3. COc1cc(Cn2ccn(-c3ccc(-c4cn[nH]c4)c(OC)n3)c2=O)ccc1F
4. O=C1N(Cc2cccc(F)c2)CCN1c1ccc(-c2ccncc2F)cc1
5. Cc1nn(-c2ccc(-c3cn[nH]c3)cc2)c(=O)n1Cc1cc(F)ccc1F

[out]
["8.30 to 8.70", "7.00 to 7.82", "> 8.70", "6.70 to 7.70", "7.30 to 8.30"]

Could you report pIC50 for every entry in the following list?
1. COc1cc(F)cc(CNC(=O)N2CCc3nc(-c4cn[nH]c4)sc3C2)c1
2. Cc1sc(N2CCC(F)(F)C2)nc1C(=O)NC1CC2(C1)CC(c1n[nH]c(=O)c3ccccc13)C2 (stereo not drawn)
3. O=C(NC1CCCC1)c1cccc([C@@H](CO)NC(=O)N2CCc3cc(-c4cn[nH]c4)c(F)cc32)c1

[out]
6.30 to 7.30
8.70 to 9.70
≥ 7.30

[in] Which pIC50 reading was recorded for the molecule O=C1N(c2ccc(-c3cn[nH]c3)cc2)CC2(CCOCC2)N1Cc1cccc(C(F)(F)F)c1 ?
[out] 6.60 to 7.52

----------
Below are pIC50 measurements against ROCK2 (Homo sapiens) drawn from the literature.
One number for each entry, as −log10 of the molar value.

O=C(Nc1ccc2cnccc2n1)C1CC1c1ccccc1 (stereo not shown) | 8.15
NC(=O)c1cccnc1Oc1ccc(CC(=O)Nc2nc3cc(-c4cnn(C(F)F)c4)ccc3s2)cc1F | 8.05

Take each entry in turn and give its pIC50.
1. NC(=O)c1cc2sccc2nc1OC1CC2(CC(NC(=O)c3cnn4ccccc34)C2)C1 (stereo not shown)
2. Cn1nc(NC(=O)Cc2ccc(Oc3ncccc3C(N)=O)cc2)c2ccccc21
3. CC(C)NC(=O)c1cc2ccc(-c3nccc(Nc4ccc5[nH]ncc5c4)n3)cc2s1
4. COc1cc(C(=O)NCc2ccccc2OC(F)(F)F)ccc1-c1cn[nH]c1
5. COc1cc(-c2cn[nH]c2)ccc1C(=O)N[C@@H](Cc1ccccc1)[C@H](O)CO

[out]
1. 7.57
2. 6.27
3. 7.15
4. 7.22
5. 7.89

For each of the items listed, what is its pIC50?
1. NC(=O)c1cccnc1Oc1ccc(CC(=O)Nc2nnc(C3CC3)s2)cc1F
2. COc1cc(N2CCC3(CCN(C(=O)c4ccc(-c5cncnc5)cc4)CC3)C2=O)ccc1-c1cn[nH]c1

[out]
1: 6.44; 2: 8.00

Can you give me pIC50 for all of these, one by one?
1. COc1cccc(C(CNC(C)C)NC(=O)c2cccc(-c3ccc4[nH]nc(C)c4c3)c2)c1 (stereo not shown)
2. CC(NC(=O)c1ccc(-c2cn[nH]c2)c(C(F)F)c1)c1ccccc1F (racemic)
3. CC(O)c1cc(C(=O)N[C@H](C)c2ccccc2F)ccc1-c1cn[nH]c1 (stereo partly shown)

[out]
[7.85, 7.27, 6.47]

----------
This section presents IC50 values reported for ROCK2 (Homo sapiens, UniProt O75116) in the literature.

Recorded IC50, per entry:
O=C(NC1CC2(C1)CC(c1n[nH]c(=O)c3ccccc13)C2)c1cnn2cc(OCCN3CCCC3)ccc12 (centres unmarked) | 0.2 to 2 nM
[H][C@]1(c2n[nH]c(=O)c3ccccc32)C[C@@]2(C[C@H](NC(=O)c3nc4c(s3)CN(C)CC4)C2)C1 (some centres unmarked) | 100 to 2100 nM
COc1cccc(NC2C(=O)N(c3ccc(-c4cn[nH]c4)cc3)CC23CN(C(C)=O)C3)c1 (centres unmarked) | 250 to 3000 nM
[H][C@]1(c2n[nH]c(=O)c3ccccc32)C[C@]2(C[C@@H](NC(=O)c3cc4ccccc4cn3)C2)C1 (some centres unmarked) | 2.01 to 5 nM

Now for another entry.
[in] So what's the measured IC50 for this one? O=C(Nc1ccc2cnccc2n1)C1CC1c1ccncc1 (centres unmarked)
[out] 30 nM

----------
pIC50: −log10 of the molar value.
Across several studies, molecules have been characterized by their pIC50 on ROCK2 (Homo sapiens); a selection follows.

COc1cccc(CN2CCN(c3ccc(-c4ncnc5[nH]ccc45)cc3)C2=O)c1 | 5.70 to 6.70

Dear colleague, could you send me pIC50 for each of the items below? Thanks.
1. COc1cc(C(=O)NC(CCO)c2ccccc2)ccc1-c1cn[nH]c1 (stereo not shown)
2. O=C(Nc1ccc(-c2cnn(C3CCOCC3)c2)cc1)NC1CC2(C1)CC(c1n[nH]c(=O)c3ccccc13)C2 (stereo not shown)
3. O=C(Nc1cccc(-n2nc(Nc3ccc4[nH]ncc4c3Cl)c3ccccc32)c1)c1cccnc1
4. CCc1nc(-n2ccn(C(C)c3ccc(F)c(OC)c3)c2=O)ccc1-c1cn[nH]c1 (single isomer, unassigned)
5. COc1cccc([C@@H](CO)NC(=O)N2CCc3cc(-c4cn[nH]c4)c(F)cc32)c1

[out]
1. 8.19
2. 7.00 to 7.82
3. > 6.52
4. 7.70 to 8.68
5. ≥ 7.30

----------
Record set: pIC50 | ROCK2 (Homo sapiens, UniProt O75116) | literature, multiple sources.
pIC50: −log10 of the molar value.

COc1nc(N2CCN(Cc3cccc(F)c3OC)C2=O)ccc1-c1cn[nH]c1 | 7.70 to 8.68
COCCOC(=O)c1ccc(C(=O)Nc2cccc(CNC3CCC(Nc4cccc5cnccc45)CC3)c2)cc1 (stereo not shown) | > 7.00

Could you tell me pIC50 for each of these molecules? They are listed below.
1. COc1ccc(F)c(CN2CCN(c3ccc(-c4cn[nH]c4)cc3)C2=O)c1
2. COc1cc(-n2ncn(Cc3cccc(C#N)c3)c2=O)ccc1-c1cn[nH]c1

[out]
6.70 to 7.70
6.60 to 7.30

----------
IC50 for ROCK2 (Homo sapiens), merged from several publications.

Solved cases (3 shown):
O=C1N(CCc2ccccc2)CCN1c1ccc(-c2ccncc2F)cc1 | 200 to 2000 nM
O=c1n(-c2ccc(-c3cn[nH]c3)cc2)cnn1Cc1cccc(F)c1 | 50 to 250 nM
Cc1cn(-c2cccc(NC(=O)c3cccnc3)c2)nc1Nc1ccc2[nH]ncc2c1 | < 300 nM

[in] Reported IC50 for [H][C@]1(c2n[nH]c(=O)c3ccccc32)C[C@]2(C[C@@H](NC(=O)c3ccc(-c4cnn(C)c4)cc3)C2)C1 (stereo partly shown) : what is it?
[out] 5.1 to 15 nM

----------
Target or system ROCK2 (Homo sapiens); metric IC50; compiled from varied reports.

COc1cccc(CN2C(=O)N(c3ccc(-c4cn[nH]c4)c(OC)n3)CC23CCN(C2COC2)CC3)c1 | < 3 nM

Value sought for every listed molecule: IC50.
1. COc1cc(F)cc(C(C)n2ccn(-c3ccc(-c4cn[nH]c4)cc3)c2=O)c1 (single isomer, unassigned)
2. O=C(NC1CC2(C1)CC(c1n[nH]c(=O)c3ccccc13)C2)C1Cc2ccccc2C1 (stereo not drawn)
3. COc1cc(-n2cnn(Cc3ccccc3)c2=O)ccc1-c1cn[nH]c1
4. CCc1nc(N2CCN(C(CO)c3cccc(OC)c3)C2=O)ccc1-c1cn[nH]c1 (single isomer, unassigned)
5. COc1cc(F)cc(CN2C(=O)N(c3ccc(-c4cn[nH]c4)cc3)CC23CCN(C(=O)C(C)(C)O)CC3)c1
6. O=C(N[C@H](CN1CC(F)(F)C1)c1cc(F)cc(F)c1)N1CCc2cc(-c3c[nH]nc3F)c(F)cc21
7. COc1cccc(CNC(=O)N2CCc3cc(-c4c[nH]nc4N)c(F)cc32)c1

[out]
1. < 2 nM
2. 100 to 2100 nM
3. 50 to 250 nM
4. 20.1 to 200 nM
5. < 3 nM
6. ≤ 50 nM
7. ≤ 50 nM

[in] I would be grateful if you could share the reported IC50 for COc1cccc(CN2C(=O)N(c3ccc(-c4cn[nH]c4)cc3)CC23CCN(C(=O)c2cnn4ccccc24)CC3)c1 .
[out] 3 to 30 nM
